target: Acetylcholinesterase (Homo sapiens, UniProt P22303)
Sequence (P22303 whole entry): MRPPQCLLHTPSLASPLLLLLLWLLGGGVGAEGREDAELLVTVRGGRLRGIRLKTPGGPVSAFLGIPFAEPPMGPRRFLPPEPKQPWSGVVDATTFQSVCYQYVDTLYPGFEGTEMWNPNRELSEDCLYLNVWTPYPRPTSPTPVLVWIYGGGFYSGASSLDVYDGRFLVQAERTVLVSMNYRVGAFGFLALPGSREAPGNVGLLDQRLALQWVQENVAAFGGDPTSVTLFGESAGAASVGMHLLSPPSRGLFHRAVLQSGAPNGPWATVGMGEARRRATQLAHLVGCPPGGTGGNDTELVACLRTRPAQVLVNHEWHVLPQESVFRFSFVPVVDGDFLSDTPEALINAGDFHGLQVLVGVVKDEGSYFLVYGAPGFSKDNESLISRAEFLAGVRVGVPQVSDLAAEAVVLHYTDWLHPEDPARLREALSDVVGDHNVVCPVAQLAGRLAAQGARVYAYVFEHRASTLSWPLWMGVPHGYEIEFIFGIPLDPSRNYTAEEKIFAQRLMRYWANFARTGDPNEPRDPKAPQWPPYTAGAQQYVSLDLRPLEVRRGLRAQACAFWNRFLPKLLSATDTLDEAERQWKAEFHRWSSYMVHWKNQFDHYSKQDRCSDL
Catalogue of compounds with associated pIC50
# pIC50 is unitless: minus log10 of the molar concentration; print number only

Field: example entries. Status: answers known.
[[record]]
moleculesmiles = "CCN(CCCCOc1ccc(-c2coc3cc(OCCCCN(CC)Cc4ccccc4OC)cc(O)c3c2=O)cc1)Cc1ccccc1OC"
tgt = "Acetylcholinesterase (Homo sapiens, UniProt P22303)"
reportedmeasurement = 6.46

[[record]]
moleculesmiles = "CCN(CCCCCCOc1cc(O)c2c(=O)c(-c3ccc(O)cc3)coc2c1)Cc1ccccc1"
tgt = "Acetylcholinesterase (Homo sapiens, UniProt P22303)"
reportedmeasurement = 5.24


Ask: Which pIC50 is reported with Acetylcholinesterase (Homo sapiens, UniProt P22303) for this entry: CCN(CCCCOc1ccc(-c2coc3cc(O)cc(O)c3c2=O)cc1)Cc1ccccc1OC ?
Result: 5.41
